# assay.details: ATG_DR4_LXR_CIS: Attagene CIS-FACTORIAL HepG2 Assay for human Liver X Receptor (LXR), DR4 submotif (AID 2282929)
# conditions: HepG2 Attagene DR4 cis-reporter, mRNA transcription; actives raise or lower the signal
Activity calls are given as the source filed them. The calls were made as follows: active = hit-call score of the fitted dose curve at least 0.9, where 1 is the maximum; inactive = score below 0.9.
API: response.call in class 1 for active, class 0 for inactive

The examples below pair each entry with its known result.
compound | category.label
CC(C)C1CCC(O)CC1 (stereo not given) | class 0
C=C(C)[C@@H]1CC[C@@H](C)C[C@@H]1O | class 0
CCCCCCCCCOC(C)=O | class 0

Recorded test outcome, item "C=C(C)C(=O)O[C@H]1C[C@@H]2CC[C@@]1(C)C2(C)C"
class 1

Recorded test outcome, item "Clc1sc(Cl)c(Cl)c1Cl"
class 0

Recorded test outcome, item CC1=CCC2C(C1)C2(C)C (stereo not given)
class 0

Recorded test outcome, item NC(=O)NC1NC(=O)NC1=O (stereo not given)
class 0

---

# assay.details: ATG_PXRE_CIS: Attagene CIS-FACTORIAL HepG2 Assay for human Pregnane X Receptor Element (PXRE) (AID 2282957)
# conditions: HepG2 Attagene CIS-FACTORIAL PXRE reporter, mRNA; actives raise or lower the signal
Active and inactive are the calls of the source. Rule for the calls: active = hit-call score of the fitted dose curve at least 0.9, where 1 is the maximum; inactive = score below 0.9.
property.measured: AC50

compound | recorded.measurement
CC(c1cc2ccccc2s1)N(O)C(N)=O (centres undefined) | inactive
CCCCCNCCCCC | 59.4 µM (active)
O=C(OCc1ccccc1)C(=O)OCc1ccccc1 | inactive
CCCC(C)C=O (centres undefined) | inactive

---

# experimental.target: Hepatocyte nuclear factor 4-alpha (Homo sapiens) (UniProt P41235)
# Sequence (P41235 whole entry, looked up): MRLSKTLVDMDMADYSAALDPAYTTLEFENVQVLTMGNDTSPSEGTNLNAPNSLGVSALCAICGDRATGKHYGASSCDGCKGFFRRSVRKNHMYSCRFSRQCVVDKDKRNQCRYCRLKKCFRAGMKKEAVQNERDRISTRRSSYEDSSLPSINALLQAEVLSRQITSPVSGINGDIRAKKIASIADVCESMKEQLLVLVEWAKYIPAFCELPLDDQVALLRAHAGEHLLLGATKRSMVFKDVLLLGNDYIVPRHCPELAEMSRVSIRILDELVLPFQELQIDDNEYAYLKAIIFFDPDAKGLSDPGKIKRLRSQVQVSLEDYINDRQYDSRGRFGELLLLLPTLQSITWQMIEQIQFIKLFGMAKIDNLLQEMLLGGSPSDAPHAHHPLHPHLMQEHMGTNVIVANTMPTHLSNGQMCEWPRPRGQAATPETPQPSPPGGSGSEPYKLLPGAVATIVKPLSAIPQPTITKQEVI
# assay.details: ATG_HNF4a_TRANS: Attagene TRANS-FACTORIAL HepG2 Assay for human Hepatocyte Nuclear Factor 4 alpha (HNF4a) (AID 2282982)
# conditions: HepG2 HNF4a transactivation reporter, mRNA readout
Results filed as inconclusive are left out. Calls of active or inactive are those of the source. How the source made its calls: active means hit-call score of the fitted dose curve at least 0.9, where 1 is the maximum; inconclusive means response in the unintended direction; inactive means score below 0.9.
property.measured: outcome

// below: answered molecules
molecule | outcome
C=COCCOCCOCCOC=C | inactive
OCCOCCOCCOCCO | inactive
CC(C)(C)C(=O)c1ccccc1 | inactive
Nc1cccc(S(=O)(=O)c2cccc(N)c2)c1 | inactive
OC1C(O)C(O)C(O)C(O)C1O (centres undefined) | inactive

The reported outcome of the molecule "CC(C)(CO)[N+](=O)[O-]" was inactive

The reported outcome of the molecule "Nc1cc([N+](=O)[O-])ccc1O" was inactive

The reported outcome of the molecule "OCCN1CCNCC1" was inactive

---

# assay.details: ATG_DR4_LXR_CIS: Attagene CIS-FACTORIAL HepG2 Assay for human Liver X Receptor (LXR), DR4 submotif (AID 2282929)
# conditions: HepG2 Attagene DR4 cis-reporter, mRNA transcription; actives raise or lower the signal
Activity calls are given as the source filed them. Rule for the calls: active = hit-call score of the fitted dose curve at least 0.9, where 1 is the maximum; inactive = score below 0.9.
API: response.call in active, inactive

molecule | category.label
O=C=NC1CCC(CC2CCC(N=C=O)CC2)CC1 (configuration not stated) | active
O=C[C@@H](O)[C@H](O)[C@H](O)CO | inactive
CC(CCO)CCCC(C)(C)O (configuration not stated) | inactive
CC(C)=CCCC(C)CC=O (configuration not stated) | inactive
ClCCCl | inactive
CC(C)[C@@H]1CC[C@@H](C)CC1=O | inactive
O=C(Cl)c1cccc(C(=O)Cl)c1 | inactive
CCN(CC)c1ccc2c(-c3ccccc3C(=O)O)c3ccc(=[N+](CC)CC)cc-3oc2c1 | active

Recorded test outcome, item "CC[Si](OC(C)=O)(OC(C)=O)OC(C)=O"
inactive

Recorded test outcome, item "OCC(CO)(CO)COCC(CO)(CO)CO"
inactive

Recorded test outcome, item "Nc1cc(N)cc(C(=O)O)c1"
inactive

Recorded test outcome, item "O=C[C@H](O)[C@H](O)[C@H](O)CO"
inactive
